# Experimental details: yeast display, Sf9 membrane polyspecificity reagent, FACS + sequencing; frameworks hold sequencing errors
Observable: polyreactivity (PSR sort gate)

In the examples that follow, each entry is paired with its recorded polyreactivity (PSR sort gate).
QVQLVESGGGLVQAGGSLRISCAASGRTFGPNAMGWYIKAPGKERELVAAIRYSGGSTYYADSVKGRFTISRDKAKNTVYLQMNSLKPEDTAVYYCAADYVSYVGERGTLYVRYDYWGQGTQVTVSS :: high polyreactivity
QVQLVESGGGLVQAGGSLRLTCAASGRISGYNMGWYRQAPGKERELVAGIDYSGGSTYYADSVKGRFTISRDNAKYNVSLQMTSLKPEDTAVYDCNAVYARKYYYSHGYDYWGQGTQVTVSS :: high polyreactivity
QVQLVESGGGLVQAGGSLRLSCAASGRTFSGYAMGWYRQAPGKERELVAAISSGGGSTYYADSVKGRFTISRDNAKNTVYLQMNSLKPEDTAVYYCAADGYPGDYDYWRQGTQVTVSS :: low polyreactivity
QVQLVESGGGLVQAGGSLRLSCAASGSIFYPYAMGWYRQAPGKERELVAAINWGGTITYYADSVKGRFTISRDNAKNTVYLQMNSLKPEDTAVYYCAAKYKGYRYYYWGQGTQVTVSS :: high polyreactivity
QVQLVESGGRLVQAGGSLRLSCADSGSIFEYYAMGWYRQAPGKEREFVAAISDNGDSTYYADSVKGRFTISRDNAKNTVYLQMNSLKPEDTEVYYCNKTPVDDPPWCYDSWGQGTQVTVSS :: low polyreactivity

Request: I have this sequence here, `QVQIVESGGGLVQAGGSLRLSCAASGSTFVDYDMGWYRQAPGKERELVAGITTGGSTNYADSVKGRFTISRDNAKNTVYLQMNRLKPEDTAVYYCAATVYGIYYYGRDRYDYWGQATQVTVSS` , and I need its recorded polyreactivity (PSR sort gate).
Response: low polyreactivity

Request: I have this sequence here, `QVQLVESGGGLVQAGGSLRLSCAASGFIFSVNTMGWYRQAPGKERELVAAISGSGGSTYYADSVKGRFTISRDNAKNTVYLQMNSLKPEDTAVYYCAAGVAWRFYSWGQGTQVTVSS` , and I need its recorded polyreactivity (PSR sort gate).
Response: high polyreactivity

Request: I have this sequence here, `QVQLVESWGGLVQAGGSLRISCAASGRTFGSYVMGWYRQAPGKERELVAAISSRGTRTYYADSVKGRFTISRDNAKNTVYLQMNSLKPEDTAVYYCNAKYGQYPPRYEYWGQGTQVTVSS` , and I need its recorded polyreactivity (PSR sort gate).
Response: high polyreactivity

Request: I have this sequence here, `QVQLVESGGGLVQAGGSLRLSCDASGSILSFYVMGWYIQAPGKERELVAAINLSSGRTYYADSVKGRFTISRDNAKNTVYLQMNSLKPEDTAVYYCAKQVFGYGIVNNGDYWGQGTQVTVSS` , and I need its recorded polyreactivity (PSR sort gate).
Response: high polyreactivity

Request: I have this sequence here, `QVQLVESGGGLVQAGGSLRLSCAASGRIFWINAMGWYRQAPGKERELVAAISSGGGTHYADSVKGRFTISRDNAKNTVYLQMNSLKPEDTAVSYCARRYQRKKPVFPHYQGAYDYWGQGTQVTVSS` , and I need its recorded polyreactivity (PSR sort gate).
Response: low polyreactivity

Request: I have this sequence here, `QVQHVESGGGIVQAGGSLRLSCAASGHIFFYYTMGWYRQAPGKERELVAGITIGGSTNYADSVKGRFTISRDNAKNTVYLQMNSLKPEDTAVYYCNVVKYVYIYSYWEYYYWGQGTQVTVSS` , and I need its recorded polyreactivity (PSR sort gate).
Response: low polyreactivity

Request: I have this sequence here, `QVQLVESAGVLVQAGGSLRFSCAPSGIIFPQYAMGWYRQAPGKARELVAAITYSGDGTYYADSVKGRFTISRDNAKYTVYLLMYSLKPDDTAVYYCAAFPRDPYKEYDYWGQGTQLTVSS` , and I need its recorded polyreactivity (PSR sort gate).
Response: low polyreactivity

Request: I have this sequence here, `QVQIVESGGGLVQAGGSLRLTCAASGSTLTIYARGWYRQAPGKERDLVAAISRSGGRTYYADSVKGRFTISRDYAKNTVYLQMNSLKPEDTAVYYCAARGWSYRSVGYMDYWGQGTQVTVSS` , and I need its recorded polyreactivity (PSR sort gate).
Response: high polyreactivity

Request: I have this sequence here, `QVQLEESGGGLVQAGGSLRLSCAASGFTFTYYAMGWYRQAPGKERELVASISYSGGSTYYADSVKGRFTISRDNAKNTVYLQMNSLKPEDTAVYYGAARTRHVHYGYWGQVTQVTVSS` , and I need its recorded polyreactivity (PSR sort gate).
Response: high polyreactivity

Request: I have this sequence here, `QVQLVESGGGLDQARGSLRLSCAASGTTIGGNAMGWYRQAPGKERELVAAIDSGGSTYADSVKGRFTISRDNAKKTVYVQMNSLKPEDTAVYYCAAVWEFVHFWSFDYWGQGTQVTVSS` , and I need its recorded polyreactivity (PSR sort gate).
Response: low polyreactivity
